# PROTOCOL SUMMARY: blockers of RIG-like receptor reporter activation – cell-based, Sendai virus stimulus, luciferase, 10K MLSCN set, TLR/RLR signaling modifier project, primary screen (AID 602276);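 note: firefly luciferase from ISG56 promoter only with Renilla not read in this screen; 0% = Sendai virus plus DMSO and 100% = medium plus DMSO without virus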
# CONDITION INFO: HEK293 RL24 IRF3 luciferase reporter, at 10 µM, stronger effect = higher value
# inhibition annotations
All answers are understood in %, so give the number only.

# MOLECULE, UNIT OF MEASURE, QUANTITATIVE READOUT
data = [
    ("Cc1cc(C)nc(NC2=NCC(=O)N2c2ccccc2Br)n1", "%", 17.3),
    ("Cc1cc(C(F)(F)F)nc(SCC(=O)NC2=NC(=O)C(C)S2)n1 (configuration not stated)", "%", -20.9),
    ("COc1ccccc1CNC(=O)C1CCCN(S(=O)(=O)c2cnc[nH]2)C1 (configuration not stated)", "%", -5.95),
    ("O=C(COc1ccccc1)N1CCN(c2ncnc3c2cnn3-c2ccccc2)CC1", "%", 14.5),
    ("O=C(C1CCCO1)N1CCN(Cc2nc3ccccc3c(=O)[nH]2)CC1 (configuration not stated)", "%", 0.729),
    ("COC(=O)CN1C(=O)C(O)(CC(=O)c2ccc(Cl)cc2)c2ccccc21 (configuration not stated)", "%", 17.2),
    ("Cc1noc(C)c1CSc1nc2ccccc2s1", "%", 4.37),
    ("COc1cccc(C(=O)CN2CCC(NC(=O)NC3CCCCC3)CC2)c1", "%", 7.64),
]

Entry under test: Cc1cc(NC(=O)CCOc2ccccc2)no1 . Its inhibition was 6.04

----------
# PROTOCOL SUMMARY: inhibitors of TNFa-induced NFkB p65 translocation, primary screen, imaging, HUVEC, MLSMR starter and 10KST1 sets (AID 438);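 note: compound added about 3h40 before a 20 min TNFalpha stimulation; signal is the nuclear over cytoplasmic p65 intensity ratio per well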
# CONDITION INFO: HUVEC TNFa-induced p65 nuclear translocation; at 2 µM, stronger effect = higher value, 0% TNFa-plus-vehicle, 100% no-TNFa wells
The following compounds are shown together with reported inhibition values.
# unit: % | format: bare number

Example results:
# COMPOUND, QUANTITATIVE READOUT
records = [
    ("Cc1cccc(Nc2nc(N)nc(CN3CCC(C(N)=O)CC3)n2)c1C", -4.3),
    ("CCN(CC)CCN1C(=O)c2oc3ccc(F)cc3c(=O)c2C1c1ccncc1 (stereo unspecified)", -12.9),
]

// next item, inhibition requested
Given item COc1ccc(C(c2nnnn2C2CCCC2)N2CCC(C)CC2)c(OC)c1 (stereo unspecified) , the value recorded as its inhibition is -7.1

----------
# TESTED SYSTEM: Alpha-2C adrenergic receptor (Homo sapiens) (UniProt P18825)
# Sequence (P18825 whole entry, looked up): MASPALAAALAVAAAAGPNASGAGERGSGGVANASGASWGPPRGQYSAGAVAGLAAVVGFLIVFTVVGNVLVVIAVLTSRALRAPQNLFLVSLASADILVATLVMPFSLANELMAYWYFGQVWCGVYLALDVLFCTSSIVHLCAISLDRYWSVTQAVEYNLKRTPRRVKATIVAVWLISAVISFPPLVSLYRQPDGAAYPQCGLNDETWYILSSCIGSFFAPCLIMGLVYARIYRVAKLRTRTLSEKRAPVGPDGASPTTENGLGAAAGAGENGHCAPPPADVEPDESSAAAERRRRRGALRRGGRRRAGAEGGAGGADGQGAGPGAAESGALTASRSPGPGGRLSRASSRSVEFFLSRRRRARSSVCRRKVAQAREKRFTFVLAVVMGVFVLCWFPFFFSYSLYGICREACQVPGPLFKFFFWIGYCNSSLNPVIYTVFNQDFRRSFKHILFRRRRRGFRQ
# PROTOCOL SUMMARY: compounds altering alpha2C-coupled GIRK flux – cell-based, HEK293 alpha2C/GIRK1/2, thallium flux, primary screen (AID 624);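 note: slope of fluorescence ratio to pre-addition baseline per second over 15 to 24 s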
# CONDITION INFO: thallium flux BTC fluorescence, at 10 µM, actives lie on both sides
ENDPOINT NAME: slope
Keep it simple and answer with nothing but the number.

These solved cases illustrate the format of a correct answer.
# MOLECULE, slope
data = [
    ("Cc1cc(C(=O)Nc2nc3c(s2)CCCC3)cs1", 0.00523),
    ("COc1ccc(-c2noc(CN(C(=O)C(C)(C)C)C(C)C)n2)cc1", 0.00416),
]

Value of slope reported for the molecule COc1cc(NC(=O)C(C)Oc2ccccc2)c(C(=O)O)cc1OC (stereo not drawn) is 0.00509

Lab note: COc1cccc(-n2c(SCC(=O)N3CCCC3)nc3c([nH]c4ccccc43)c2=O)c1 gave slope of 0.00652

Lab note: measured slope of COc1ccc(C(=O)Nc2ccc(S(=O)(=O)NC(C)=O)cc2)cc1 was 0.00509
